experimental system: Kir3.1/Kir3.4 (Homo sapiens, UniProt P48544+P48549)
Sequence (P48549 whole entry): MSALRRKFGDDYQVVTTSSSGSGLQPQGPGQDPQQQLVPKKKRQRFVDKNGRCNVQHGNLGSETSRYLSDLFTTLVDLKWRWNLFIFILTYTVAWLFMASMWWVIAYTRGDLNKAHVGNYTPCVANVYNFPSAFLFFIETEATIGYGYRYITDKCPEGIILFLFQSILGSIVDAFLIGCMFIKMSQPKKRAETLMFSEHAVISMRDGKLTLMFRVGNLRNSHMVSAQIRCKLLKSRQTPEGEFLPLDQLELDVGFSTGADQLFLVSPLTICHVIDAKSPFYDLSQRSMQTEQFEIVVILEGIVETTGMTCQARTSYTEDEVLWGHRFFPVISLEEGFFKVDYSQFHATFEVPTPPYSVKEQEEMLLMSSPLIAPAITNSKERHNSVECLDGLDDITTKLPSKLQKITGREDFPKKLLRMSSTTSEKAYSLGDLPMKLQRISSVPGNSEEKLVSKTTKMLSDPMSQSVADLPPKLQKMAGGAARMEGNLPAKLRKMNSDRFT
Sequence (P48544 whole entry): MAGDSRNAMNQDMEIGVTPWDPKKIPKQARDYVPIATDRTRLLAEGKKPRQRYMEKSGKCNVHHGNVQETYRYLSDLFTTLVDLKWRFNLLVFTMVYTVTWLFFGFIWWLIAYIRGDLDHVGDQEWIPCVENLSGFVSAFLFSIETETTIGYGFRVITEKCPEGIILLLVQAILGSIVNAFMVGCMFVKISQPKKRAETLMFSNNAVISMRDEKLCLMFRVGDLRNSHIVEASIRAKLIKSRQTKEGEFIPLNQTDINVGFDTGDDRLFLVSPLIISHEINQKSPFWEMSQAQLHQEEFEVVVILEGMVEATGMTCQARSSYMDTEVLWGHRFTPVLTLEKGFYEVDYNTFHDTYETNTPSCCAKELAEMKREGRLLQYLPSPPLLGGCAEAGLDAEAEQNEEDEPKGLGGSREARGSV
method description: Inhibition of GTPgammaS-induced activation of GIRK1/4 (unknown origin) expressed in HEK293 cells assessed as decrease in channel current after 2 mins at -40 mV holding potential by automated patch-clamp electrophysiology assay
Measured pIC50 of individual entries
Would you please state pIC50, meaning minus log10 of the concentration in mol/L, as a bare number?

Worked cases, answers included:
Documented pIC50 of CCC(C)C(=O)O[C@H]1C(=O)[C@@]23CO[C@@](C)([C@H](OC(C)=O)[C@@]4(OC(C)=O)C[C@H](C)[C@H](OC(=O)c5cccnc5)[C@@H]4[C@H]2OC(C)=O)[C@@H]3[C@@H]2[C@H]1C[C@]2(C)OC(C)=O (stereo not given in full) : 5.31

Documented pIC50 of `CCC(=O)O[C@@H]1[C@@H]2[C@@H](OC(C)=O)[C@@]34CO[C@@](C)([C@H](OC(C)=O)[C@@]2(OC(C)=O)C[C@@H]1C)[C@@H]3[C@@H](C(C)(C)OC(C)=O)C=CC4=O` : 5.17

Documented pIC50 of `CC(=O)O[C@@H]1[C@H]2[C@@H](OC(=O)c3ccccc3)[C@@H](C)C[C@]2(OC(C)=O)[C@@H](OC(C)=O)[C@]2(C)OC[C@]13C(=O)C=C[C@H](C(C)(C)OC(C)=O)[C@@H]23` : 5.60

Others:
Documented pIC50 of `CC(=O)O[C@@H]1[C@H]2[C@@H](OC(=O)C(C)C)[C@@H](C)C[C@]2(OC(C)=O)[C@@H](OC(C)=O)[C@]2(C)OC[C@]13C(=O)C=C[C@H](C(C)(C)OC(C)=O)[C@@H]23` : 5.33

Documented pIC50 of `CC(=O)O[C@@H]1[C@H]2[C@@H](OC(=O)C(C)C)[C@@H](C)C[C@]2(OC(C)=O)[C@@H](OC(C)=O)[C@]2(C)OC[C@]13C(=O)[C@H](OC(C)=O)[C@@H]1C[C@](C)(OC(C)=O)[C@@H]1[C@@H]23` : 5.01
